Tested On: Replicative DNA helicase DnaB (Mycobacterium tuberculosis, UniProt P9WMR3)
Sequence (P9WMR3 1-399, added parts left off): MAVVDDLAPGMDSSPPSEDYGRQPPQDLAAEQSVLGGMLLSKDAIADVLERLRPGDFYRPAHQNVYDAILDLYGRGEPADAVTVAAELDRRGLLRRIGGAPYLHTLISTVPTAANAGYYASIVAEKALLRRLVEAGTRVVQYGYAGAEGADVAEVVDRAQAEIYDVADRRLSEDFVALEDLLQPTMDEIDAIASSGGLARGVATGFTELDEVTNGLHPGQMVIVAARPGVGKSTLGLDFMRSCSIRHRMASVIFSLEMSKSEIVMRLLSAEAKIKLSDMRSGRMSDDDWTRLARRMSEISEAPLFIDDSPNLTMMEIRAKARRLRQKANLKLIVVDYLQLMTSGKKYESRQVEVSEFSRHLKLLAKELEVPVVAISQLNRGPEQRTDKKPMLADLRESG
Assay Remarks: DnaB intein splicing inhibitors, dose response, biochemical, cell-free fluorescence (AID 449749)
Assay type: functional
Active and inactive are the calls of the source. No stated cut-off is given here; in the data, actives have a measured AC50 and inactives only a lower limit.
Outcome codes: label 1 for active, label 0 for inactive

>  <Molecule>
COc1ccc(C(c2c(C)[nH]n(-c3ccccc3)c2=O)c2c(C)[nH]n(-c3ccccc3)c2=O)cc1OC

>  <Tested On>
Replicative DNA helicase DnaB (Mycobacterium tuberculosis, UniProt P9WMR3)

>  <Assigned Label>
label 1

$$$$
>  <Molecule>
O=c1oc2cc(Oc3c([N+](=O)[O-])cc(C(F)(F)F)cc3[N+](=O)[O-])ccc2c2c1CCCC2

>  <Tested On>
Replicative DNA helicase DnaB (Mycobacterium tuberculosis, UniProt P9WMR3)

>  <Assigned Label>
label 0

$$$$
>  <Molecule>
CCN(CC)C(=O)c1ccc2c(c1[N+](=O)[O-])C(=O)c1ccccc1C2=O

>  <Tested On>
Replicative DNA helicase DnaB (Mycobacterium tuberculosis, UniProt P9WMR3)

>  <Assigned Label>
label 0

$$$$
>  <Molecule>
CCOC(=O)CSc1nnc(NCC(=O)OC(C)C)c(=O)[nH]1

>  <Tested On>
Replicative DNA helicase DnaB (Mycobacterium tuberculosis, UniProt P9WMR3)

>  <Assigned Label>
label 1

$$$$
